Catalogue of Activity values
# TEST TARGET: Mitogen-activated protein kinase kinase kinase kinase 5 (Homo sapiens) (UniProt Q9Y4K4)
# Sequence (Q9Y4K4 whole entry, looked up): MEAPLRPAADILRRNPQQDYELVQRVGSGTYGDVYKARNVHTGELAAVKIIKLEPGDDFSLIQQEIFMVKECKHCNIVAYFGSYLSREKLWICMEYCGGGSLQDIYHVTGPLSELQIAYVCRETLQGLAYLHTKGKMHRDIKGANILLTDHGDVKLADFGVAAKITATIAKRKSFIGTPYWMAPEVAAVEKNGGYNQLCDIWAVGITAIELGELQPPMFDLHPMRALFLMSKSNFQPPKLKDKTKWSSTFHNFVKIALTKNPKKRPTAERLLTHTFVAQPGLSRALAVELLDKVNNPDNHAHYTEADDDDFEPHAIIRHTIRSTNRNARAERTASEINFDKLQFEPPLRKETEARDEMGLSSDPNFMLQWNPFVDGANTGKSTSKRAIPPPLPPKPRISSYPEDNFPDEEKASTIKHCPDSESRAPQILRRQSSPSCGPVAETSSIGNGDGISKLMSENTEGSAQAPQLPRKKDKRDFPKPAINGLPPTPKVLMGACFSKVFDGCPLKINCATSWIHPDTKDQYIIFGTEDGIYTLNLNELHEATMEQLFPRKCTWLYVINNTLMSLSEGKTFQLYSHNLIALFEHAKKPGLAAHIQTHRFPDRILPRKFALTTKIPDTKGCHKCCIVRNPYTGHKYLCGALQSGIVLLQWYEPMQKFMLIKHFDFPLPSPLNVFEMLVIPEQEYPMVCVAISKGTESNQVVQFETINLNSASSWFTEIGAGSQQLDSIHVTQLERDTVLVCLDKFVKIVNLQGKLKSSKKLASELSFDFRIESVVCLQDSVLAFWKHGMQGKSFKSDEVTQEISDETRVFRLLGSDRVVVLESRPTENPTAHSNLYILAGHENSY
# ASSAY OVERVIEW: Binding affinity to wild type partial length human MAP4K5 (M1 to P297) expressed in Bacterial expression system assessed as residual activity at 100 nM measured by Kinomescan assay relative to control

# TEST SMILES, MEASUREMENT UNITS, Activity
rows = [
    ("CCCCCS(=O)(=O)Nc1ccc(F)c(C(=O)c2c[nH]c3ncc(-c4ccc(Cl)cc4)cc23)c1F", "%", 98),
    ("CCCS(=O)(=O)Nc1ccc(F)c(C(=O)c2c[nH]c3ncc(-c4cccc(OC)c4)cc23)c1F", "%", 18),
    ("CCCS(=O)(=O)Nc1ccc(F)c(C(=O)c2c[nH]c3ncc(-c4ccc(F)cc4C)cc23)c1F", "%", 100),
    ("CCCS(=O)(=O)Nc1ccc(F)c(C(=O)c2c[nH]c3ncc(-c4ccc(OC)cc4)cc23)c1F", "%", 38),
    ("CCS(=O)(=O)Nc1ccc(F)c(C(=O)c2c[nH]c3ncc(-c4ccc(Cl)cc4)cc23)c1F", "%", 82),
    ("CS(=O)(=O)Nc1cccc(C(=O)c2c[nH]c3ncc(-c4ccc(Cl)cc4)cc23)c1F", "%", 78),
    ("CCCS(=O)(=O)Nc1ccc(F)c(C(=O)c2c[nH]c3ncc(-c4cncnc4)cc23)c1F", "%", 80),
    ("CCCS(=O)(=O)Nc1ccc(F)c(C(=O)c2c[nH]c3ncc(-c4ccc(F)cc4Cl)cc23)c1F", "%", 100),
    ("O=C(c1c(F)ccc(NS(=O)(=O)c2ccccc2)c1F)c1c[nH]c2ncc(-c3ccc(Cl)cc3)cc12", "%", 83),
    ("CCCS(=O)(=O)Nc1ccc(F)c(C(=O)c2c[nH]c3ncc(-c4cccc(F)c4)cc23)c1F", "%", 45),
    ("O=C(c1cccc(NS(=O)(=O)Cc2ccccc2)c1F)c1c[nH]c2ncc(-c3cc4c(cc3Cl)OCCO4)cc12", "%", 98),
    ("O=C(c1cccc(NS(=O)(=O)Cc2ccccc2)c1F)c1c[nH]c2ncc(-c3ccc(Cl)cc3)cc12", "%", 72),
    ("CCCS(=O)(=O)Nc1ccc(F)c(C(=O)c2c[nH]c3ncc(-c4ccc(OC)c(OC)c4)cc23)c1F", "%", 14),
    ("CCCS(=O)(=O)Nc1ccc(F)c(C(=O)c2c[nH]c3ncc(-c4cccs4)cc23)c1F", "%", 48),
    ("O=C(c1cccc(NS(=O)(=O)Cc2ccccc2)c1F)c1c[nH]c2ncc(-c3ccncc3)cc12", "%", 26),
]
